molecules and their reported inhibition at 2 µM
biological target: ICAM-1/LFA-1 interaction (recombinant LFA-1, biotinylated recombinant ICAM-1/Ig) (Homo sapiens); construct: Recombinant LFA-1 (100 mL of 0.7 mg/ml, ICOS Corporation) in D-PBS is then added to each well; assay: ICAM-1/LFA-1 Biochemical Interaction Assay (46A); assay type: binding; settings: @ 2 μM compound; read-out: % inhibition
measurement type: inhibition at 2 µM (%)

- molecule: "CC(C)c1ccccc1Sc1ccc(C2CC2C(=O)N2CCOCC2)c(Cl)c1Cl (racemic) [Example 20]"
  measurement type: "inhibition at 2 µM"
  unit text: "%"
  value: 96
- molecule: "CC(C)c1ccccc1Sc1ccc(C2CC2C(=O)N2CCC(C(=O)O)CC2)c(Cl)c1Cl (racemic) [Example 18]"
  measurement type: "inhibition at 2 µM"
  unit text: "%"
  value: 93
- molecule: "CC(C)c1ccccc1Sc1ccc(C2CC2C(=O)N2CCC2)c(Cl)c1Cl (racemic) [Example 25]"
  measurement type: "inhibition at 2 µM"
  unit text: "%"
  value: 95
- molecule: "CC(C)c1ccccc1Sc1ccc(C2CC2C(=O)NCCC(=O)O)c(Cl)c1Cl (racemic) [Example 16]"
  measurement type: "inhibition at 2 µM"
  unit text: "%"
  value: 96

----------
target: ICAM-1/LFA-1 interaction (recombinant LFA-1, biotinylated recombinant ICAM-1/Ig) (Homo sapiens, UniProt P20701); construct: Recombinant LFA-1 (100 mL of 0.7 mg/ml, ICOS Corporation) in D-PBS is then added to each well; assay: ICAM-1/LFA-1 Biochemical Interaction Assay (46A); type: binding; conditions: @ 2 μM compound; read-out: % inhibition
Sequence (P20701 26-1170): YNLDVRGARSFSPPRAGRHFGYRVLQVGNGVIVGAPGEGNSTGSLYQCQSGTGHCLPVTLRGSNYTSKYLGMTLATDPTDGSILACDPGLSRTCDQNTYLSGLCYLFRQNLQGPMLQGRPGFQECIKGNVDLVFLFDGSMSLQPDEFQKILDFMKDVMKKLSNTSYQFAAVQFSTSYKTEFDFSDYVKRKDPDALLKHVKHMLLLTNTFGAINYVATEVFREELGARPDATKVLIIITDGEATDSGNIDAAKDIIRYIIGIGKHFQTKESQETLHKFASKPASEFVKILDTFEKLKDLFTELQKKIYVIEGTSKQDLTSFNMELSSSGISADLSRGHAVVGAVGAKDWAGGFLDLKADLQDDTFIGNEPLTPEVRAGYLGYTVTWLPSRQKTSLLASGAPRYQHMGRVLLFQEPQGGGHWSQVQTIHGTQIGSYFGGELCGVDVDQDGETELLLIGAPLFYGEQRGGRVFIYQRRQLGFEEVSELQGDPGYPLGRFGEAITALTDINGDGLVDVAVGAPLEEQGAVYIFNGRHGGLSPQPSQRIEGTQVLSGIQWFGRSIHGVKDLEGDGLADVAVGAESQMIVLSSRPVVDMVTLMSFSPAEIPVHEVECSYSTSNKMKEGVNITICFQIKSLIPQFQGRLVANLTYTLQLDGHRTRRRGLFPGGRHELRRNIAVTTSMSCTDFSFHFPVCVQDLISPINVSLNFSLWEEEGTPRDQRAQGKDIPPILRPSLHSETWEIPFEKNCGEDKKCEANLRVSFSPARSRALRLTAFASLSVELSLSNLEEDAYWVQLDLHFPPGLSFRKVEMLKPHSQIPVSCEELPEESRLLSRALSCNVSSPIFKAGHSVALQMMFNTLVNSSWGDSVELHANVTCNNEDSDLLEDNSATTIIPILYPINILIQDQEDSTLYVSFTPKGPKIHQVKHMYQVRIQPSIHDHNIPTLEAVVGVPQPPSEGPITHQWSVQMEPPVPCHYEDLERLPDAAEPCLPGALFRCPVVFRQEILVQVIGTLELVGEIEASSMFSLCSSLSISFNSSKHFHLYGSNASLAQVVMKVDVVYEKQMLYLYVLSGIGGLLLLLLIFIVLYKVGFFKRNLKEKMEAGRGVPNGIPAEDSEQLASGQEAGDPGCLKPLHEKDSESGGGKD
Sequence (P05107 23-769 partner): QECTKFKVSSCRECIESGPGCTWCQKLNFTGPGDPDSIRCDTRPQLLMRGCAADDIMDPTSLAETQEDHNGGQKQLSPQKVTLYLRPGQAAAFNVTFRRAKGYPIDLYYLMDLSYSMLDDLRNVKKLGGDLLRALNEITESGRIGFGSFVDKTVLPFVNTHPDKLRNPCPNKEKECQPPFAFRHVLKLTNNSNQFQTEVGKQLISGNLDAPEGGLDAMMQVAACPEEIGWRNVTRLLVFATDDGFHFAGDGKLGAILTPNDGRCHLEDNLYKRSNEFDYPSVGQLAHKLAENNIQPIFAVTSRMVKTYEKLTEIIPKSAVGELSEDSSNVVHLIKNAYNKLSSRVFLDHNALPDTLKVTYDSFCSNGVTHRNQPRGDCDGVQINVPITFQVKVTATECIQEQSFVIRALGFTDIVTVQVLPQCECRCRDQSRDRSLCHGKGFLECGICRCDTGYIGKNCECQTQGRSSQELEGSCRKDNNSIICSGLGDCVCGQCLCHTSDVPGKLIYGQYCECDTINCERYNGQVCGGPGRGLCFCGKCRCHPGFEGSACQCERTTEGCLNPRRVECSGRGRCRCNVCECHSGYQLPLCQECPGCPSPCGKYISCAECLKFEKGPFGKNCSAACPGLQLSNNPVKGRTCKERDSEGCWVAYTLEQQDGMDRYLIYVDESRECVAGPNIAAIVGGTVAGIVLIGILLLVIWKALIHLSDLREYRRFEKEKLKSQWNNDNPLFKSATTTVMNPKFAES

- compound: "CC(C)c1ccccc1Sc1ccc(C2CC2C(=O)NCC(=O)O)c(Cl)c1Cl (racemic)"
  unit text: "%"
  inhibition at 2 µM: 95
- compound: "O=C(NCCCN1CCCC1=O)C1CC1c1ccc(Sc2ccccc2N2CCOCC2)c(Cl)c1 (racemic)"
  unit text: "%"
  inhibition at 2 µM: 94
- compound: "CC(=O)N1CCN(C(=O)C2CC2c2ccc(Sc3ccccc3C(C)C)c(Cl)c2Cl)CC1 (racemic)"
  unit text: "%"
  inhibition at 2 µM: 94
- compound: "CC(C)c1ccccc1Sc1ccc([C@@H]2C[C@H]2C(=O)NC2CCC2)c(Cl)c1Cl (racemic)"
  unit text: "%"
  inhibition at 2 µM: 94

----------
molecular target: ICAM-1/LFA-1 interaction (recombinant LFA-1, biotinylated recombinant ICAM-1/Ig) (Homo sapiens, UniProt P20701); construct: Recombinant LFA-1 (100 mL of 0.7 mg/ml, ICOS Corporation) in D-PBS is then added to each well; experiment: ICAM-1/LFA-1 Biochemical Interaction Assay (46A); type: binding; details: @ 4 μM compound
Measured inhibition at 4 µM values are reported for all entries that follow.
measurement type: inhibition at 4 µM (%)

- compound: "O=C(O)C1CC1c1ccc(Sc2ccccc2Br)c(Cl)c1Cl (racemic) [Example 15]"
  measurement type: "inhibition at 4 µM"
  value: 88
- compound: "O=C(NCCCN1CCCC1=O)C1CC1c1ccc(Sc2ccccc2N2CCCCC2)c(C(F)(F)F)c1 (racemic) [Example 9]"
  measurement type: "inhibition at 4 µM"
  value: 95
- compound: "O=C(NCCCN1CCCC1=O)C1CC1c1ccc(Sc2ccccc2Br)c(Cl)c1Cl (racemic) [Example 14]"
  measurement type: "inhibition at 4 µM"
  value: 92
- compound: "O=C(NCCCN1CCCC1=O)C1CC1c1ccc(Sc2ccccc2N2CCOCC2)c(Cl)c1 (racemic) [Example 8]"
  measurement type: "inhibition at 4 µM"
  value: 94
- compound: "COc1ccccc1Sc1ccc(C2CC2C(=O)NCCC(=O)O)c(Cl)c1Cl (mixture of isomers) [Example 13]"
  measurement type: "inhibition at 4 µM"
  value: 95
- compound: "COc1ccccc1Sc1ccc(C2CC2C(=O)NCC(=O)O)c(Cl)c1Cl (mixture of isomers) [Example 12]"
  measurement type: "inhibition at 4 µM"
  value: 93
- compound: "O=C(O)C1CC1c1ccc(Sc2ccccc2N2CCOCC2)c(Cl)c1Cl (racemic) [Example 12]"
  measurement type: "inhibition at 4 µM"
  value: 91
- compound: "O=C(NCCCN1CCCC1=O)C1CC1c1ccc(Sc2ccccc2Br)c(C(F)(F)F)c1 (racemic) [Example 1]"
  measurement type: "inhibition at 4 µM"
  value: 92
- compound: "O=C(NCCCN1CCCC1=O)C1CC1c1ccc(Sc2cccc(N3CCOCC3)c2)c(C(F)(F)F)c1 (racemic) [Example 11]"
  measurement type: "inhibition at 4 µM"
  value: 44
- compound: "CN(CCCN1CCCC1=O)C(=O)C1CC1c1ccc(Sc2ccccc2N2CCOCC2)c(C(F)(F)F)c1 (racemic) [Example 13]"
  measurement type: "inhibition at 4 µM"
  value: 93
